Tested on: MOLM-13 cells
procedure_summary: Cell viability assay (CellTiter-Glo) in MOLM-13 cells, alone or with gilteritinib
Assay type: cell-based
condition_info: Homo sapiens, MOLM-13, 72 h, MOLM-13 cells, compound alone (without gilteritinib), three days, CellTiter-Glo; read-out: MOLM-13 IC50
measure: IC50

compound | IC50
Cc1ccc(-c2cnn([C@H]3C[C@H](CCCNc4ccc5c(c4)C(=O)N(C4CCC(=O)NC4=O)C5=O)C3)c2)nc1 (stereo partly shown) | > 1000 nM
O=C1CCC(N2C(=O)c3ccc(NCCC[C@H]4C[C@H](n5cc(-c6cnc7ccc(CN8CCNCC8)cc7n6)c(C6CC6)n5)C4)cc3C2=O)C(=O)N1 (stereo partly shown) | < 10 nM
O=C1CCC(N2C(=O)c3ccc(NCCC[C@H]4C[C@H](n5cc(-c6nccc(N7CCOCC7)n6)cn5)C4)cc3C2=O)C(=O)N1 (stereo partly shown) | 100 to 1000 nM
O=C1CCC(N2C(=O)c3ccc(NCCC[C@H]4C[C@@H](n5cc(-c6cnc7cc(NC8COC8)ccc7n6)c(C6CC6)n5)C4)cc3C2=O)C(=O)N1 (stereo partly shown) | 10 to 100 nM
O=C1CCC(N2C(=O)c3ccc(NCCC[C@H]4C[C@@H](n5cc(-c6cnc7cc(C8CCOCC8)ccc7n6)cn5)C4)cc3C2=O)C(=O)N1 (stereo partly shown) | > 1000 nM
CN(c1ccccn1)C1CCN(CC(=O)NCCNc2ccc3c(c2)C(=O)N(C2CCC(=O)NC2=O)C3=O)CC1 (stereo not shown) | > 1000 nM

[Q] Param readout= IC50; system= MOLM-13 cells; entry= O=C1CCC(N2C(=O)c3ccc(NC[C@H]4C[C@H](n5cc(C6CCCC6)c(C6CC6)n5)C4)cc3C2=O)C(=O)N1 (stereo partly shown) ; returns value.
[A] 100 to 1000 nM

[Q] Param readout= IC50; system= MOLM-13 cells; entry= Cc1c(-c2cnc3ccccc3n2)cnn1[C@H]1C[C@@H](CCCNc2ccc3c(c2)C(=O)N(C2CCC(=O)NC2=O)C3=O)C1 (stereo partly shown) ; returns value.
[A] > 1000 nM

[Q] Param readout= IC50; system= MOLM-13 cells; entry= O=C1CCC(N2Cc3c(NC4CCCC(Nc5ccnc(N6CCC(n7cc(-c8cnc9ccccc9n8)cn7)CC6)n5)C4)cccc3C2=O)C(=O)N1 (stereo not shown) ; returns value.
[A] > 1000 nM

[Q] Param readout= IC50; system= MOLM-13 cells; entry= O=C1CCC(N2C(=O)c3ccc(NCCC[C@H]4C[C@H](n5ccc(C6CC6)n5)C4)cc3C2=O)C(=O)N1 (stereo partly shown) ; returns value.
[A] > 1000 nM

[Q] Param readout= IC50; system= MOLM-13 cells; entry= O=C(CN1CCCC(N2CCN(c3ccccn3)CC2)C1)NCc1ccc2c(c1)C(=O)N(C1CCC(=O)NC1=O)C2=O (stereo not shown) ; returns value.
[A] > 1000 nM

[Q] Param readout= IC50; system= MOLM-13 cells; entry= O=C1CCC(N2C(=O)c3ccc(NC(=O)COCCC(=O)N4CCC(n5cc(-c6cnc7ccccc7n6)cn5)CC4)cc3C2=O)C(=O)N1 (stereo not shown) ; returns value.
[A] > 1000 nM

[Q] Param readout= IC50; system= MOLM-13 cells; entry= O=C1CCC(N2Cc3c(Nc4ccnc(NC5CCC(N6CCC(n7cc(-c8cnc9ccccc9n8)cn7)CC6)C5)n4)cccc3C2=O)C(=O)N1 (stereo not shown) ; returns value.
[A] > 1000 nM

* * *

Tested on: MV4;11 cells
procedure_summary: Cell viability assay (CellTiter-Glo) in MV4;11 cells, alone or with gilteritinib
Type: cell-based
condition_info: Homo sapiens, MV4-11, 72 h, MV4;11 cells, with 10 nM gilteritinib, 3 days, CellTiter-Glo; read-out: MV4; 11 IC50 gilteritinib
The compounds listed here are annotated with their IC50.

Some compounds with known IC50 results, for comparison:
compound | target | measure | value_measured
O=C1CCC(N2C(=O)c3ccc(NCCCCCC(=O)N4CCC(N5CCOCC5)CC4)cc3C2=O)C(=O)N1 (stereo not drawn) | MV4;11 cells | IC50 | > 10 µM
Cc1ccccc1C(=O)N1CCN(C(=O)CCCCCNc2ccc3c(c2)C(=O)N(C2CCC(=O)NC2=O)C3=O)CC1 (stereo not drawn) | MV4;11 cells | IC50 | > 10 µM

Okay, now this compound:
[Q] Returns the measured IC50 for the input compound. Input: O=C1CCC(N2C(=O)c3ccc(NCCCCCC(=O)N4CCCCC4)cc3C2=O)C(=O)N1 (stereo not drawn)
[A] > 10 µM

* * *

The molecules listed here are annotated with their pIC50.
Tested on: MOLM-13 cells
procedure_summary: Cell viability assay (CellTiter-Glo) in MOLM-13 cells, alone or with gilteritinib
Type: cell-based
condition_info: Homo sapiens, MOLM-13, 72 h, MOLM-13 cells, compound alone (without gilteritinib), three days, CellTiter-Glo; read-out: MOLM-13 IC50
pIC50: −log10 of the molar value.

Some molecules with known pIC50 results, for comparison:
molecule | value_measured
O=C1CCC(N2Cc3c(Nc4ccnc(N5CCC(N6CCC(n7cc(-c8cnc9ccccc9n8)cn7)CC6)C5)n4)cccc3C2=O)C(=O)N1 (stereo not shown) | < 6.00
O=C1CCC(N2Cc3c(Nc4ccnc(Nc5cccc(C(=O)N6CCN(c7ccccn7)CC6)c5)n4)cccc3C2=O)C(=O)N1 (stereo not shown) | < 6.00
O=C1CCC(N2C(=O)c3ccc(NCCCC4CC(n5cc(-c6cnc7cccc(F)c7n6)cn5)C4)cc3C2=O)C(=O)N1 (stereo not shown) | 6.00 to 7.00

Okay, now this molecule:
[Q] Returns the measured pIC50 for the input molecule. Input: O=C1CCC(N2Cc3c(Nc4ccnc(Nc5cccc(-n6cc(-c7cnc8ccccc8n7)cn6)c5)n4)cccc3C2=O)C(=O)N1 (stereo not shown)
[A] < 6.00

* * *

System: MOLM-13 cells
procedure_summary: Cell viability assay (CellTiter-Glo) in MOLM-13 cells, alone or with gilteritinib
Type: cell-based
condition_info: Homo sapiens, MOLM-13, 72 h, MOLM-13 cells, with gilteritinib 20 nM, three days, CellTiter-Glo; read-out: MOLM-13 IC50 gilteritinib
measure: IC50

Some compounds with known IC50 results, for comparison:
compound | IC50
CN1C[C@H]2C[C@@H]1CN2c1ccc2ncc(-c3cnn([C@H]4C[C@H](CCCNc5ccc6c(c5)C(=O)N(C5CCC(=O)NC5=O)C6=O)C4)c3)nc2c1 (stereo partly drawn) [GS-411] | < 10 nM
O=C1CCC(N2Cc3c(Nc4ccnc(Nc5cccc(N6CCN(c7ncccn7)CC6)c5)n4)cccc3C2=O)C(=O)N1 (stereo not drawn) [GS-078] | < 10 nM
O=C1CCC(N2Cc3ccc(CCCCC(=O)N4CCC(n5cc(-c6cnc7ccccc7n6)cn5)CC4)cc3C2=O)C(=O)N1 (stereo not drawn) [GS-161] | 10 to 100 nM

[Q] Returns the measured IC50 for the input compound. Input: O=C1CCC(N2C(=O)c3ccc(NC[C@H]4C[C@H](n5cc(-c6cc7nccnc7cn6)c(C6CC6)n5)C4)cc3C2=O)C(=O)N1 (stereo partly drawn) [GS-285]
[A] 10 to 100 nM

[Q] Returns the measured IC50 for the input compound. Input: O=C1CCC(N2C(=O)c3ccc(NC[C@H]4C[C@H](n5cc(-c6ccncc6)c(C6CC6)n5)C4)cc3C2=O)C(=O)N1 (stereo partly drawn) [GS-265]
[A] 100 to 1000 nM

* * *

System: MOLM-13 cells
procedure_summary: Cell viability assay (CellTiter-Glo) in MOLM-13 cells, alone or with gilteritinib
Format: cell-based
condition_info: Homo sapiens, MOLM-13, 72 h, MOLM-13 cells, compound alone (without gilteritinib), three days, CellTiter-Glo; read-out: MOLM-13 IC50
The molecules listed here are annotated with their IC50.

molecule | value_measured
COc1ccc(-c2cn([C@H]3C[C@H](CNc4ccc5c(c4)C(=O)N(C4CCC(=O)NC4=O)C5=O)C3)nc2C2CC2)nc1 (some centres unmarked) | 100 to 1000 nM
CN1CCN(c2ccc3nc(-c4cn([C@H]5C[C@H](CNc6ccc7c(c6)C(=O)N(C6CCC(=O)NC6=O)C7=O)C5)nc4C4CC4)cnc3c2)CC1 (some centres unmarked) | 10 to 100 nM
Cc1nn([C@H]2C[C@H](CCCNc3ccc4c(c3)C(=O)N(C3CCC(=O)NC3=O)C4=O)C2)cc1-c1cnc2ccc(N3CCOCC3)cc2n1 (some centres unmarked) | < 10 nM
Cc1nc(-c2cnc3ccccc3n2)cn1CCCCCCNc1ccc2c(c1)C(=O)N(C1CCC(=O)NC1=O)C2=O (centres unmarked) | 100 to 1000 nM

Okay, now this molecule:
[Q] Param readout= IC50; system= MOLM-13 cells; entry= O=C1CCC(N2C(=O)c3ccc(NCC4CC(n5cc(-c6cnc7cccc(F)c7n6)cn5)C4)cc3C2=O)C(=O)N1 (centres unmarked) ; returns value.
[A] > 1000 nM
